- experimentDescription: Probe fluorescence ratio response to linolenic acid relative to ADIFAB2
- Assay type: binding
- testContext: response relative to ADIFAB2

molecule: 55W2, 72A (protein, listed as Rattus norvegicus, PEPTIDE (1)...(131) wild-type rat intestinal fatty acid binding protein) AFDGTWKVDRNENYEKFMEKMGINVVKRKLGAHDNLKLTITQEGNKFTVKESSNWRNIDVVFELGVDFAYSAADGTELTGTWTMEGNKLVGKFKRVDNGKELIAVREISGNELIQTYTYEGVEAKRIFKKE
DR/DR LNA: 0.82
//
molecule: 18V 31I 55L 73V 72A (protein, listed as Rattus norvegicus, PEPTIDE (1)...(131) wild-type rat intestinal fatty acid binding protein) AFDGTWKVDRNENYEKFVEKMGINVVKRKLIAHDNLKLTITQEGNKFTVKESSNLRNIDVVFELGVDFAYSAVDGTELTGTWTMEGNKLVGKFKRVDNGKELIAVREISGNELIQTYTYEGVEAKRIFKKE
DR/DR LNA: 2.433

Values were extracted from patent US20060257938A1.
